# target_of_assay: GSPT1 protein (Homo sapiens)
# Construct: degradation of myc and GSPT1 proteins in HL60 cells; endogenous in cells; host or cells: HL60
# Sequence (P15170 whole entry): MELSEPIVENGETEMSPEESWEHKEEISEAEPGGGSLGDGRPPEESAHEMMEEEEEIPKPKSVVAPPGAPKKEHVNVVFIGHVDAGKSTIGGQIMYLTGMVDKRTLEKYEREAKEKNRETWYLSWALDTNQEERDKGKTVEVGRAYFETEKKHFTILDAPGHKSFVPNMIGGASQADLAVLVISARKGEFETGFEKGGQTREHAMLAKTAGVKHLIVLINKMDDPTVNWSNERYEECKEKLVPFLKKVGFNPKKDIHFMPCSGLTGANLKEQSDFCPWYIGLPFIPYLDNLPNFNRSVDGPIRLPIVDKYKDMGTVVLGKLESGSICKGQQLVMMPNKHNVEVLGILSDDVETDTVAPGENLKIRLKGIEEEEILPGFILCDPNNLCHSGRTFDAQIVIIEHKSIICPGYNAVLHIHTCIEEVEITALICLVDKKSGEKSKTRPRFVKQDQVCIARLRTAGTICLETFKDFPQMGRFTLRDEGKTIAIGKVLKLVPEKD
# protocol_notes: GSPT1 protein degradation in HL60 cells (Western blot)
# Assay type: cell-based
# assay_conditions: HL-60, compound at 10 nM, 24 h, gray value relative to Ctrl (DMSO), read-out: Remaining amount of GSPT1 protein (@10 nM/Ctrl)
metric_name: remaining GSPT1 protein at 0.01 µM (%)

Worked cases, answers included:
compound	remaining GSPT1 protein at 0.01 µM (%)
Cc1cccc(-c2cnc(N3CCC(F)(CNCc4ccc5c(c4)CN(C4CCC(=O)NC4=O)C5=O)CC3)c(C(F)(F)F)c2)c1 (centres unmarked)	3
O=C1CCC(N2Cc3cc(CNCC4CCN(c5ncc(-c6ccccc6)cc5C(F)(F)F)CC4)ccc3C2=O)C(=O)N1 (centres unmarked)	0

[A] O=C1CCC(N2Cc3cc(CNCC4CCN(c5ncc(-c6cccc(Cl)c6)cc5Cl)CC4)ccc3C2=O)C(=O)N1 (centres unmarked)
[B] O=C1CCC(N2Cc3cc(CNCC4CCN(c5ncc(-c6ccccc6F)cc5F)CC4)ccc3C2=O)C(=O)N1 (centres unmarked)
[C] O=C1CCC(N2Cc3cc(CNCC4CCN(c5ncc(-c6cccc7ccccc67)s5)CC4)ccc3C2=O)C(=O)N1 (centres unmarked)
Prompt: Kindly order the items shown according to remaining GSPT1 protein at 0.01 µM, from the highest value down. # output: labels, in the requested order
Response: C, B, A
(C: 4%, B: 1%, A: 0%)

====

We begin with a simple list: items and their reported IC50.
# Test system: HL60 cells
# protocol_notes: Anti-proliferation on HL60 cells (CellTiter-Glo, 3 days)
# Format: cell-based
# assay_conditions: Homo sapiens, HL-60, 72 h, 3 days incubation, CTG luminescence, IC50 by XLfit, read-out: HL60 cells Proliferation inhibitory activity

Prompt: Name the reported IC50 value associated with the compound COc1cccc(-c2cnc(N3CCC(CNCc4ccc5c(c4)CN(C4CCC(=O)NC4=O)C5=O)CC3)c(F)c2)c1 (stereo not drawn)
Response: < 0.2 nM

Prompt: IC50 for Cc1cc(-c2cccc(Cl)c2)cnc1N1CCC(CNCc2ccc3c(c2)CN(C2CCC(=O)NC2=O)C3=O)CC1 (stereo not drawn) ?
Response: < 0.2 nM

Prompt: GET /values?readout=IC50&item= O=C1CCC(N2Cc3cc(CNCC4CCN(c5ncc(-c6cccc(F)c6)cc5F)CC4)ccc3C2=O)C(=O)N1 (stereo not drawn)
Response: < 0.2 nM

====

# Test system: HL60 cells
# protocol_notes: Anti-proliferation on HL60 cells (CellTiter-Glo, 3 days)
# Assay type: cell-based
# assay_conditions: Homo sapiens, HL-60, 72 h, 3 days incubation, CTG luminescence, IC50 by XLfit, read-out: HL60 cells Proliferation inhibitory activity
pIC50: −log10 of the molar value.
The reader will find reported pIC50 values listed item by item below.

Some solved entries appear below for comparison.
molecule	pIC50
O=C1CCC(N2Cc3cc(CNCC4CCN(c5ncc(-c6cccc(Cl)c6)cc5C(F)(F)F)CC4)ccc3C2=O)C(=O)N1 (stereo not shown)	> 9.70
O=C1CCC(N2Cc3cc(NC(=O)CC4CCN(c5ccc(-c6cccc7cccc(F)c67)cn5)CC4)ccc3C2=O)C(=O)N1 (stereo not shown)	> 9.70
O=C1CCC(N2Cc3cc(CNCC4CCN(c5ncc(-c6cccc(Cl)c6)cc5F)CC4)ccc3C2=O)C(=O)N1 (stereo not shown)	> 9.70

// switching to the query molecule
Prompt: Data request, read-out pIC50, for O=C1CCC(N2Cc3cc(CNCC4CCN(c5ccc(-c6cccc(Cl)c6)cn5)CC4)ccc3C2=O)C(=O)N1 (stereo not shown)
Response: > 9.70

====

# Tested on: HL60 cells
# protocol_notes: Anti-proliferation on HL60 cells (CellTiter-Glo, 3 days)
# Assay type: cell-based
# assay_conditions: Homo sapiens, HL-60, 72 h, 3 days incubation, CTG luminescence, IC50 by XLfit, read-out: HL60 cells Proliferation inhibitory activity
# Description: HL60 cells (Cell Bank of Chinese Academy of Sciences) in the logarithmic growth phase were counted and plated evenly in a 96-well transparent bottom white plate at 20000 cells per well and 100 μL per well. A certain amount of the compound of the present invention was weighed and diluted with DMSO to a 10 mM stock solution. […]
metric_name: IC50 (nM)

These solved cases illustrate the format of a correct answer.
compound	endpoint_value
COc1cccc(-c2cnc(N3CCC(F)(CNCc4ccc5c(c4)CN(C4CCC(=O)NC4=O)C5=O)CC3)c(F)c2)c1 (stereo not shown)	2.47
COc1cccc(-c2cnc(N3CCC(CNCc4scc5c4CN(C4CCC(=O)NC4=O)C5=O)CC3)c(C(F)(F)F)c2)c1 (stereo not shown)	752
O=C1CCC(c2coc3ccc(CNCC4CCN(c5ncc(-c6cccc(Cl)c6)cc5C(F)(F)F)CC4)cc23)C(=O)N1 (stereo not shown)	3360
Cc1cccc(-c2cnc(N3CCC(F)(CNCc4ccc5c(c4)CN(C4CCC(=O)NC4=O)C5=O)CC3)c(C(F)(F)F)c2)c1 (stereo not shown)	1
O=C1CCC(N2Cc3cc(NC(=O)CC4CCN(c5cc(-c6cccc7ccccc67)ccn5)CC4)ccc3C2=O)C(=O)N1 (stereo not shown)	1.2

[a] O=C1CCC(N2Cc3cc(NC(=O)CC4CCN(c5ncc(-c6ccncc6)cn5)CC4)ccc3C2=O)C(=O)N1 (stereo not shown)
[b] N#Cc1cc(CNCC2CCN(c3ncc(-c4cccc(Cl)c4)cc3C(F)(F)F)CC2)ccc1C(=O)NC1CCC(=O)NC1=O (stereo not shown)
Prompt: Form field 'greater IC50' accepts a or b ; which applies? Respond using the label that marks the chosen record.
Response: b
(b: 231 nM, a: 60 nM)

[a] O=C1CCC(c2cn3cc(CNCC4CCN(c5ncc(-c6cccc(Cl)c6)cc5C(F)(F)F)CC4)ccc3n2)C(=O)N1 (stereo not shown)
[b] O=C1CCC(N2Cc3cc(CNCC4CCN(c5cnc(-c6cccc(Cl)c6)cn5)CC4)ccc3C2=O)C(=O)N1 (stereo not shown)
[c] O=C1CCC(N2Cc3cc(NCCC4CCN(c5ncc(-c6cccc(Cl)c6)cc5C(F)(F)F)CC4)ccc3C2=O)C(=O)N1 (stereo not shown)
Prompt: Sequence the entries by IC50, beginning with the highest number. Give me the labels in the order the question wants.
Response: a, c, b
(a: 8520 nM, c: 35.8 nM, b: 0.5 nM)

====

# Test system: HL60 cells
# protocol_notes: Anti-proliferation on HL60 cells (CellTiter-Glo, 3 days)
# Type: cell-based
# assay_conditions: Homo sapiens, HL-60, 72 h, 3 days incubation, CTG luminescence, IC50 by XLfit, read-out: HL60 cells Proliferation inhibitory activity
metric_name: IC50 (nM)

[P] CC(NCc1ccc2c(c1)CN(C1CCC(=O)NC1=O)C2=O)C1CCN(c2ncc(-c3cccc(Cl)c3)cc2F)CC1 (stereo not drawn)
[Q] O=C(CN1CCC(CC(=O)Nc2ccc3c(c2)CN(C2CCC(=O)NC2=O)C3=O)CC1)NCCn1c2ccccc2c2cccnc21 (stereo not drawn)
Prompt: Given P and Q , report the one with the higher recorded IC50. Your answer should be the label attached to the chosen record.
Response: P
(P: 55 nM, Q: 14 nM)

[1] O=C1CCC(N2Cc3cc(CNCC4CCN(c5ncc(-c6cccc(Cl)c6)cc5F)CC4F)ccc3C2=O)C(=O)N1 (stereo not drawn)
[2] O=C1CCC(N2Cc3cc(NC(=O)CC4CCN(c5cnc(-c6cccc7ccccc67)s5)CC4)ccc3C2=O)C(=O)N1 (stereo not drawn)
[3] O=C1CCC(N2Cc3cc(C(=O)NCC4CCN(c5cncc(-c6cccc7ccccc67)c5)CC4)ccc3C2=O)C(=O)N1 (stereo not drawn)
[4] N#Cc1cccc(-c2cnc(N3CCC(CNCc4ccc5c(c4)CN(C4CCC(=O)NC4=O)C5=O)CC3)c(F)c2)c1 (stereo not drawn)
Prompt: List the 4 entries from lowest IC50 to highest IC50 value. Show the ranking through the labels, in the order asked for.
Response: 2, 1, 4, 3
(2: 0.3 nM, 1: 0.6 nM, 4: 1.3 nM, 3: 5.5 nM)

[1] O=C1CCC(N2Cc3cc(CNCC4CCN(c5ncc(-c6ccc(F)cc6)cc5F)CC4)ccc3C2=O)C(=O)N1 (stereo not drawn)
[2] O=C1CCC(N2Cc3cc(CNCC4CCN(c5ncc(-c6cccc(Cl)c6)cc5F)CC4(F)F)ccc3C2=O)C(=O)N1 (stereo not drawn)
Prompt: // returns 1 or 2 , whichever has the lower IC50 Returns: label corresponding to the selected item.
Response: 2
(2: 0.8 nM, 1: 6.2 nM)

====

# Test system: HL60 cells
# protocol_notes: Anti-proliferation on HL60 cells (CellTiter-Glo, 3 days)
# Format: cell-based
# assay_conditions: Homo sapiens, HL-60, 72 h, 3 days incubation, CTG luminescence, IC50 by XLfit, read-out: HL60 cells Proliferation inhibitory activity
pIC50: −log10 of the molar value.
metric_name: pIC50

compound	target_of_assay	endpoint_value
O=C1CCC(N2Cc3cc(NC(=O)CC4CCN(c5ncc(-c6cccc7ccccc67)cn5)CC4)ccc3C2=O)C(=O)N1 (stereo not drawn)	HL60 cells	> 9.70

Prompt: Could you tell me which pIC50 is on file for COc1cccc(-c2cnc(N3CCC(CNCc4ccc5c(c4)CN(C4CCC(=O)NC4=O)C5=O)CC3)c(C(F)(F)F)c2)c1 (stereo not drawn) ?
Response: > 9.70

Prompt: What pIC50 value was documented for this compound, O=C1CCC(N2Cc3cc(NC(=O)CC4CCN(c5ccc(-c6cccc(Cl)c6)nc5)CC4)ccc3C2=O)C(=O)N1 (stereo not drawn) ?
Response: > 9.70
